- ASSAY_PROCEDURE: soluble on expression in E. coli; label from the status in PepcDB or PDB records
READOUT_TYPE: soluble on expression in E. coli

The cases that follow already have their soluble on expression in E. coli on record.
MSLAKLPVGGIWKARLVLNEMQWSPYIKVATFSADITLDVTDKNNGAIYLPAFGSATPRVDLNLRTQPLSTAPGGEVSGQANIDMCLYDGYNSNSPWLKVALSDLQTVAGRPADVFSLRRDGSSGTAAADRVDYRITLNYNNQPQTVNNGQDITLASVNSTLIRPVVMPGIAFPVICTPTPLTLNVLPFAKLSKAAGHFSGTLRVTLSADALAEGHHHHHH; not soluble
MLSPITLEALHILDAIERRGSFAAAANELNRAPSSLSYQIQKLEQDLDLMIFDRSGHRANFTEAGKLILERGRAILAATEKLVNDATLLANGWELDITIALDGIVPAANLFPMVEALGNISKTRVRIQDEILAGCWEALATGRADLLICPRIEALPQDVKAETIGTMKMIWVAAPTHYVHRRSGEFNEEAREKYRAIAIADTAREQPAMSVNILQRQPRLTVSNLDAKCKALVAGLGIGTLPLQVAQPYIDKGELKAIHGSEDLEMDIVLAWRRNQMGEAKSWCIQYLKKNWRWE; not soluble
MAEQLSPGKAVDQVCTFLFKKPGRKGAAGRRKRPACDPEPGESGSSSDEGCTVVRPEKKRVTHNPMIQKTRDSGKQKAAYGDLSSEEEEENEPESLGVVYKSTRSAKPVGPEDMGATAVYELDTEKERDAQAIFERSQKIQEELRGKEDDKIYRGINNYQKYMKPKDTSMGNASSGMVRKGPIRAPEHLRATVRWDYQPDICKDYKETGFCGFGDSCKFLHDRSDYKHGWQIERELDEGRYGVYEDENYEVGSDDEEIPFKCFICRQSFQNPVVTKCRHYFCESCALQHFRTTPRCYVCDQQTNGVFNPAKELIAKLEKHRATGEGGASDLPEDPDEDAIPIT; soluble
MFVDQVKVYVKGGDGGNGMVAFRREKYVPKGGPAGGDGGKGGDVVFEVDEGLRTLMDFRYKKHFKAIRGEHGMSKNQHGRNADDMVIKVPPGTVVTDDDTKQVIADLTEHGQRAVIARGGRGGRGNSRFATPANPAPQLSENGEPGKERYIVLELKVLADVGLVGFPSVGKSTLLSVVSSAKPKIADYHFTTLVPNLGMVETDDGRSFVMADLPGLIEGAHQGVGLGHQFLRHIERTRVIVHVIDMSGLEGRDPYDDYLTINQELSEYNLRLTERPQIIVANKMDMPEAAENLEAFKEKLTDDYPVFPISAVTREGLRELLFEVANQLENTPEFPLYDEEEL; soluble
MLIANEVYHALNLEEVWFLPNQIPPHKQGRDITSVESRLQMLELATEAEEHFSICLEELSRKGPSYTYDTMLQLTKKYPDVQFHFIIGGDMVEYLPKWYNIEALLDLVTFVGVARPGYKLRTPYPITTVEIPEFAVSSSLLRERYKEKKTCKYLLPEKVQVYIERNGLYES; not soluble
MFNKKENSSPDVFDTLIGVNTFLEGNIETEGTVRIDGKIKGNVKVKGDVYIGKDANINGNISANNVYMSGRVDGNIEAKGVLRILSTAQLYGDILVQSLISDEGSIFEGNCKMVSASNAQNSDGSVSKNNKNVKDKDGDKSHTSA; not soluble
MARSQLSAAGEQHVIQLNQQGGKNLFCFPPISGFGIYFKDLALQLNHKAAVYGFHFIEEDSRIEQYVSRITEIQPEGPYVLLGYSAGGNLAFEVVQAMEQKGLEVSDFIIVDAYKKDQSITADTENDDSAAYLPEAVRETVMQKKRCYQEYWAQLINEGRIKSNIHFIEAGIQTETSGAMVLQKWQDAAEEGYAEYTGYGAHKDMLEGEFAEKNANIILNILDKINSDQKVLPNKHGSHHHHHH; soluble
MGSDKIHHHHHHMKQPLYQQIIDYLQNEIDSGRLPVGAQVPTEKELSAQFNVSRITSKRALTELETQGVIQRHQGKGSFVQAPKHPLHTSLNKVLFLLPFADDLSVGNFYSGLAPTIQAAGLEVFMTSPNFLREKNAADIVNEFAGLVYYAATSNDYLDLLFELALMNFPVVVLDKKIHDLPFATIQSDNFAGGKTATERLIGLGHTKIGYILSGSPALQSVRQRYLGYLQALKEANLAFHTAITETNLLDEHNFKQYFEAHQLTAVVCDNDFSALHCLRNCKNLGIHVPEELSIIGFDDIQAAAFVEPPLTTMAQDFKEMGKLAGEVLLQTMQQDLQIIEDIQVPVTLIERETISTVSK; not soluble

# input Give a short answer stating reported soluble on expression in E. coli for MRIESPQNPRVKALAALKERKERERTGRFLVEGRREVERALEAGLSLETLLLGPKARPEDRALAGGAEVLELSERALARVSTRENPAQVLGVFRLPRRSLAGVTLGAAPLVLVLLGLEKPGNLGAILRAADGAGADLVLVAEGVDLFSPQVIRNSTGAVFALPVYPVAEGEAARFLEEHNLPLVAATPEGERLYWEGDYRGGVAFLLGAEDKGLPEAWKRRAQVRVRIPMRGRADSLNVAVTAALLLYEALRQRSGGAPL .
# output soluble

# input Identify measured soluble on expression in E. coli corresponding to MGSDKIHHHHHHMTTQAKQPSRFDRNPLASENERLILDIVRRHGPIARSVITTHTNLTQQSVHRLIEGLIERGLLRTGAPLKGARGQPSPTIELAVESVASLGISINTDSAIICLADFSCGVIAQKKLELLPLSREATLVSLSRTLDEMLEAHNLPRDRLLGLGFAMSGFSVADDRIFNAPEPLQDWSLMDLRPILEQTFQLPVWQENNATTGAIGESLQGVGRWCQTFAYLSFNYGFGGGLILNGQPFYGFHGNAAELSGIYDPTEAPRRPALQYLLRSLQDHGIEIDSVDTLYRTFDPGWPGVEAWLEATMPQVERLVAVLIAVIDPQAIVFGGQLPPALGAMMIERCPMPSQRVHRYGVGPKEARLVLSEVKGDAAVIGAALLPLKMRYFI
# output not soluble

# input Output soluble on expression in E. coli of GAMGPREVTMKKGDILTLLNSTNKDWWKVEVNDRQGFVPAAYVKKLDSGTGKELVLALYDYQESGDNAPSYSPPPPP
# output soluble

---

- ASSAY_PROCEDURE: soluble on expression in E. coli; label from the status in PepcDB or PDB records
READOUT_TYPE: soluble on expression in E. coli

MGSDKIHHHHHHMICEFSESVLDGIADALVDRGYICVDNLFEPEVVVRLRDKVFTKADETFKPASIGRGQEQHRNTDIRRDSIRWLEPQCAVDNQYLSLMESLKNGLNRRLFMGLFDYESHYALYRPGAFYKKHVDALKGSQNRILTTVFFMNPEWQPDHGGVLKLYEEDDSLIEELAPLMGRLVIFLSERFPHEVMPTTVDRASIAGWFRVAGSQHGF; not soluble
MTMNANIEVRLKSPAHPGGFIKHEIIEPLALSVSNAAEVLGVSRAALSALLNERAHLPPEMALRIEKAFGVSMDTLMRMQNSYDIAQTRKRAEEIKVAPFSGKPIESNSVV; not soluble
MKKNMLRIMATVTIMGGLFVSTNVPNVKAEEYPEMIVFDDVPVNHWAYDDIMDVVYNKVMLGYGNGKFGVGDNVTREQVAAVLYRTLNLKKEGPLKNPYKDISERATFFLDEILVLTKHGIFEGDEKGNFRPAAPVTRAETAQILTKAFTFEVKKNHTFKDVPNNHWAKNAISALQSNHVIVGTGNGKFEPNKVVTREQYATFLNKAVFYFPVKDENYE; not soluble
MGSDKIHHHHHHMPGFSADLDCVPGSIRSQVEENYRVWRRAWITSSAQPAVNSSGRALRLQPRHTAQRRTASESGADAGGELNGITIPTTATTRYAERRGISIVRTYADEGKSGLRIDGRRALQQLIKDVEGGTADFQIILVYDVSRWGRFQDADESAYYECICRRAGIQVAYCAEQFENDGSPVSTIVKGVKRAMAREYSRELSAKVFAGQCRLIELGYRQGSPAGFGLRRVLIDQQGSSKGMLARGEQKSLQTDRVVLMPGPGDEIRIVHQIYRWFIDEGLGDSEIAMRLNSIRVRTDFDRYWTRATVHEVLTNEKYIGNNVYNRISFKLKKLRVVNTPDMWDQKGRRV; not soluble

# input Look up soluble on expression in E. coli of MGSDKIHHHHHHMSNQYHNFNSQIESHILFYGHQKCKPDEYFDGTNLRKNDILYYVLDGKGTFNSSGHHVAKLAKGDLFLVPRSRTCYFEADHDNPWEYFWIGLSGAGTNEMIKASNLPNKNFLRQIQKTEFFETLKELYSTLNEDSSLLNNVKIASLTYQLFYHLIDEFPNHPSIRKTPKIDQYQIAIDYLNKNYTDPTCNIVELCNRLGVSRSFLYSLFRKNTKISPQKYLMQLRMEAAKKELLNTTHNLKEIARKVGYGDEFTFSKAFKRYSGVSPNVFRGK and report it.
# output not soluble

# input Give soluble on expression in E. coli for GHMREMLQVERPKLILDDGKRTDGRKPDELRSIKIELGVLKNADGSAIFEMGNTKAIAAVYGPKEMHPRHLSLPDRAVLRVRYHMTPFSTDERKNPAPSRREIELSKVIREALESAVLVELFPRTAIDVFTEILQADAGSRLVSLMAASLALADAGIPMRDLIAGVAVGKADGVIILDLNETEAMWGEADMPIAMMPSLNQVTLFQLNGSMTPDEFRQAFDLAVKGINIIYNLEREALKSKYVEFKEEGV
# output soluble

# input // Input: MSLSPPGVRLFYDPRGHHAGAINELCWGLEEQGVPCQTITYDGGGDAAALGALAARSSPLRVGIGLSASGEIALTHAQLPADAPLATGHVTDSDDQLRTLGANAGQLVKVLPLSERN . Output its soluble on expression in E. coli only.
# output soluble

The values you see were collected from the DeepSol protein solubility set.
